tested on: Saccharomyces cerevisiae ZIM 2255 (RPMI); assay: FICI minimum (fractional inhibitory concentration index, Loewe) (dimensionless); higher = less synergy / more antagonism; settings: temperature: 37 °C
measuredProperty: FICI minimum
Keep it simple and answer with nothing but the number.

compound	targetUnderTest	FICI minimum
C=CC[C@@H]1/C=C(\C)C[C@H](C)C[C@H](OC)[C@H]2O[C@@](O)(C(=O)C(=O)N3CCCC[C@H]3C(=O)O[C@H](/C(C)=C/[C@@H]3CC[C@@H](O)[C@H](OC)C3)[C@H](C)[C@@H](O)CC1=O)[C@H](C)C[C@@H]2OC [tacrolimus] + CCC(C)n1ncn(-c2ccc(N3CCN(c4ccc(OCC5COC(Cn6cncn6)(c6ccc(Cl)cc6Cl)O5)cc4)CC3)cc2)c1=O [itraconazole]	Saccharomyces cerevisiae ZIM 2255 (RPMI)	0.254

Saccharomyces cerevisiae ZIM 2255 (RPMI) assay, compound C=CC[C@@H]1/C=C(\C)C[C@H](C)C[C@H](OC)[C@H]2O[C@@](O)(C(=O)C(=O)N3CCCC[C@H]3C(=O)O[C@H](/C(C)=C/[C@@H]3CC[C@@H](O)[C@H](OC)C3)[C@H](C)[C@@H](O)CC1=O)[C@H](C)C[C@@H]2OC [tacrolimus] + OC(Cn1cncn1)(Cn1cncn1)c1ccc(F)cc1F [fluconazole] , recorded FICI minimum = 0.156
